# tested on: T1, amylin receptor (nucleus accumbens membranes prepared from rat brain) (rat, UniProt P32214 25-516)
# T1 chain 1: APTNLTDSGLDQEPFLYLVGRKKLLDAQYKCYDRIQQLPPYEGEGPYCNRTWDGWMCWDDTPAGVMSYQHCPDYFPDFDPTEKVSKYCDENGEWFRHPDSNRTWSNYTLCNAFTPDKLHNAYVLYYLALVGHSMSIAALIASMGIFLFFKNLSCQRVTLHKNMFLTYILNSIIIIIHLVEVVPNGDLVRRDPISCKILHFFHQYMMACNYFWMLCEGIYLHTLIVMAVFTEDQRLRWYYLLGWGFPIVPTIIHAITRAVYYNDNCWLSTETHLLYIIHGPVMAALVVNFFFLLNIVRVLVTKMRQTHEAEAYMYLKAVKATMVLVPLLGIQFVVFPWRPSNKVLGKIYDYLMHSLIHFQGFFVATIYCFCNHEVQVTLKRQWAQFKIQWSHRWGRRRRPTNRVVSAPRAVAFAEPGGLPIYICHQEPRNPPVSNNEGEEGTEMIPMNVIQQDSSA
# T1 chain 2: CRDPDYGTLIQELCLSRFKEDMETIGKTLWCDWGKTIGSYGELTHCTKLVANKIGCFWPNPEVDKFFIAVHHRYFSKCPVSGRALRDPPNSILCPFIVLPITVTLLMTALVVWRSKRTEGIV
# method: radioligand binding assay (displacement of radiolabeled amylin)
Ends that are not written are not given here.
experimental endpoint: pEC50
// pEC50: -log10(molar conc.)

Using the record for TQAQLLRVGCVLGTCQVQNLSHRLWQLMGPAGRQDSAPVDPSSPHSY-NH2 (ends and bridges not checked) [Human AFP-6 [1-47]] , report its pEC50.
8.54
